The reported measurements were obtained from patent US20210388087A1.

Recorded KD ratio to GLS3000 by entry
test system: T1, CD3 epsilon homodimer protein (UniProt P07766 23-126)
T1 construct: also called CD3 (CD3 epsilon)
T1 sequence (P07766 23-126): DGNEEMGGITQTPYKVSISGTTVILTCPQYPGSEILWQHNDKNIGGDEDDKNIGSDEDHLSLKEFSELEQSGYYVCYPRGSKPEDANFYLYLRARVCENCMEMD
assay overview: SPR, antibody over immobilised CD3e homodimer;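 also: SPR at 25 °C with CD3 epsilon homodimer amine-coupled to a CM4 sensor chip and antibody flowed over as analyte in HBS-EP+ running buffer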
Number only, no unit.

binder: CE115HA000/GLS3000 N30Y (antibody, IgG1, name in Kabat numbering, V domains shown, one-arm IgG1) VH: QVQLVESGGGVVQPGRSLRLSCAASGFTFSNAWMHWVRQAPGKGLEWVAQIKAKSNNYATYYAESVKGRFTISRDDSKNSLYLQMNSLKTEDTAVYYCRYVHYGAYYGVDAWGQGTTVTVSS VL: DIVMTQSPLSLPVTPGEPASISCRSSQSLVHSNRYTYLHWYQQKPGQAPRLLIYKVSNRFSGVPDRFSGSGSGTDFTLKISRVEAEDVGVYYCGQGTQVPYTFGQGTKLEIK
KD ratio to GLS3000: 1.03

binder: CE115HA000/GLS3000 G91P (antibody, IgG1, name in Kabat numbering, V domains shown, one-arm IgG1) VH: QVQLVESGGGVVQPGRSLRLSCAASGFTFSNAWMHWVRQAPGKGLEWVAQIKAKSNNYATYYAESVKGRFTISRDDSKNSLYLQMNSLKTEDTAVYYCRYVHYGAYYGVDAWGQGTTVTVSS VL: DIVMTQSPLSLPVTPGEPASISCRSSQSLVHSNRNTYLHWYQQKPGQAPRLLIYKVSNRFSGVPDRFSGSGSGTDFTLKISRVEAEDVGVYYCGQPTQVPYTFGQGTKLEIK
KD ratio to GLS3000: 23.1

binder: CE115HA000/GLS3000 H34S (antibody, IgG1, name in Kabat numbering, V domains shown, one-arm IgG1) VH: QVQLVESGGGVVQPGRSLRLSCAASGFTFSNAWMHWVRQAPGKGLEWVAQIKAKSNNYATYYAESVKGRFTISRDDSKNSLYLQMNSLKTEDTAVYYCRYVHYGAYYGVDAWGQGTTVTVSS VL: DIVMTQSPLSLPVTPGEPASISCRSSQSLVHSNRNTYLSWYQQKPGQAPRLLIYKVSNRFSGVPDRFSGSGSGTDFTLKISRVEAEDVGVYYCGQGTQVPYTFGQGTKLEIK
KD ratio to GLS3000: 1.24

binder: CE115HA000/GLS3000 Y96H (antibody, IgG1, name in Kabat numbering, V domains shown, one-arm IgG1) VH: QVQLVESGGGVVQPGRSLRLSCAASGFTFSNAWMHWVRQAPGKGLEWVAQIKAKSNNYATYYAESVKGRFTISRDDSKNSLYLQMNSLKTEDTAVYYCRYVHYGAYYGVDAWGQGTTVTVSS VL: DIVMTQSPLSLPVTPGEPASISCRSSQSLVHSNRNTYLHWYQQKPGQAPRLLIYKVSNRFSGVPDRFSGSGSGTDFTLKISRVEAEDVGVYYCGQGTQVPHTFGQGTKLEIK
KD ratio to GLS3000: 80.3

Let's switch to this binder now.
# lookup: KD ratio to GLS3000 of CE115HA000/GLS3000 R24G (antibody, IgG1, name in Kabat numbering, V domains shown, one-arm IgG1) VH: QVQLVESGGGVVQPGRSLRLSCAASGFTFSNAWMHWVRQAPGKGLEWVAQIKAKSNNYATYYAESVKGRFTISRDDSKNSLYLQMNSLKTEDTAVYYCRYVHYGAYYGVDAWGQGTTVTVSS VL: DIVMTQSPLSLPVTPGEPASISCGSSQSLVHSNRNTYLHWYQQKPGQAPRLLIYKVSNRFSGVPDRFSGSGSGTDFTLKISRVEAEDVGVYYCGQGTQVPYTFGQGTKLEIK
0.92
